- Test system: glycogen synthase kinase-3 (GSK3A per assay name; protocol says GSK3B)
- assay.method.text: GSK3 binders on small-molecule microarrays, primary screen, biochemical, small-molecule microarray, 635 nm fluorescence, GSK3A (AID 1103); also: the record names both GSK3A and GSK3B
- experimental.setup: small-molecule microarray binding, fluorescence 635 nm; higher = more signal
// map composite z-score onto a label; ranges low-valued: < -0.1; mid-valued: ≥ -0.1 and < 0.7; high-valued: ≥ 0.7

q: Which composite z-score category applies to CC(C)c1ccc(NN2C(C(O)c3ccccc3)C=CC3C(=O)N(c4ccccc4)C(=O)C32)cc1 (stereo not drawn) here?
a: mid-valued

q: Which composite z-score category applies to CC(C)c1ccc(NN2C(C(O)C(C)c3ccccc3)C=CC3C(=O)N(c4ccccc4)C(=O)C32)cc1 (stereo not drawn) here?
a: high-valued

q: Which composite z-score category applies to CCCC1(C(=O)OC)C=C2C(=C(C(C)C)C(=O)C2C)CN1 (stereo not drawn) here?
a: low-valued

q: Which composite z-score category applies to CO[C@H]1O[C@H](CO)[C@@H](OC(=O)Nc2ccccc2)[C@@H]2OC(=O)[C@@H](Cc3ccccc3)C/C=C/C[C@H](Cc3ccccc3)C(=O)O[C@@H]12 here?
a: mid-valued

q: Which composite z-score category applies to O=C1O[C@H](c2ccccc2)[C@H](c2ccccc2)N2[C@H]1[C@@H](C(=O)O)[C@]1(C(=O)Nc3ccccc31)[C@H]2c1ccc(OCCO)cc1 here?
a: mid-valued

q: Which composite z-score category applies to C=CC[C@@]1(C(=O)NCCCOC)N=C(c2ccc(OCCCO)cc2)O[C@@H]1c1ccccc1CN=[N+]=[N-] here?
a: high-valued

q: Which composite z-score category applies to C=CCC(OC(C)=O)[C@@H]1[C@@H](N(Cc2ccc(-c3ccccc3)cc2)C(=O)Cc2ccc(OC)cc2)c2cc(OCCCO)ccc2N1C(=O)Cc1ccc(OC)cc1 (stereo partly drawn) here?
a: mid-valued

q: Which composite z-score category applies to COc1ccc(C(=O)Nc2ccc(CN3C(=O)[C@]4(O[C@H](CC(=O)N(CCO)Cc5ccccc5)[C@@H]([Si](C)(C)c5ccc(OC)cc5)[C@@H]4C)c4ccccc43)cc2)cc1 here?
a: high-valued

q: Which composite z-score category applies to COC(=O)[C@@]1(Cc2ccc(F)cc2)[C@H]2c3cc(C(=O)N(C)C)n(Cc4ccc(C(F)(F)F)nc4)c3C[C@H]2CN1C(=O)c1ccccc1 here?
a: high-valued

q: Which composite z-score category applies to COC(=O)c1c2oc(c1C(=O)OC)C(=O)N[C@H](Cc1ccccc1)Cn1cc(nn1)C1(CCCCC1)NC(=O)N[C@H](CO)CC2 here?
a: low-valued

q: Which composite z-score category applies to O=C1NC(=O)C2C1C=CC(C(O)c1ccc(F)cc1)N2Nc1ccc(Cl)cc1Cl (stereo not drawn) here?
a: low-valued

q: Which composite z-score category applies to CC(C)N1CC=CC23O[C@@H]4/C=C\CCCOC(=O)C4[C@H]2C(=O)N(C(C)CO)[C@@H]3C1=O (stereo partly drawn) here?
a: low-valued

q: Which composite z-score category applies to Cc1ccc(S[C@]2(C(=O)NCCN3CCOCC3)CC(=O)N(C(C)C)[C@@H]2c2ccc(CO)cc2I)cc1 here?
a: low-valued

q: Which composite z-score category applies to CN1C(=O)C2C=CC(C(O)c3ccc([N+](=O)[O-])cc3)N(Nc3ccccc3)C2C1=O (stereo not drawn) here?
a: high-valued

q: Which composite z-score category applies to O=C1c2ccccc2[C@](Cc2ccccc2I)(C(=O)NCCN2CCOCC2)[C@H](c2ccc(CO)cc2)N1Cc1ccccc1C(F)(F)F here?
a: mid-valued

q: Which composite z-score category applies to COc1cc(Cc2cc3c(c(CCc4ccccc4)n2)[Si](C(C)C)(C(C)C)O[C@H]3c2ccccc2)cc(OC)c1OC here?
a: low-valued

q: Which composite z-score category applies to CC(C)c1ccc(NN2C(C(O)C3CCCCC3)C=CC3C(=O)N(c4ccccc4)C(=O)C32)cc1 (stereo not drawn) here?
a: high-valued

q: Which composite z-score category applies to C=CCC(OC(C)=O)[C@@H]1[C@@H](N(Cc2cccc3ccccc23)C(=O)c2ccc(C)cc2)c2cc(OCCCO)ccc2N1C(=O)Cc1ccc2ccccc2c1 (stereo partly drawn) here?
a: mid-valued

q: Which composite z-score category applies to COc1ccc(NN2C(C(O)c3ccccc3)C=CC3C(=O)N(C4CCCCC4)C(=O)C32)cc1 (stereo not drawn) here?
a: high-valued

q: Which composite z-score category applies to COCCOC(=O)N1C(=O)[C@@]2(c3cc(C#CCCO)ccc31)[C@H](c1ccc(O)cc1)N1[C@H](c3ccccc3)[C@H](c3ccccc3)OC(=O)[C@H]1[C@@H]2C(=O)NC[C@H](O)c1ccccc1 here?
a: high-valued

q: Which composite z-score category applies to COC(=O)[C@@]1(Cc2ccc(F)cc2)[C@H]2c3cc(C(=O)N4CCCC4)n(Cc4ccc(OC(F)(F)F)cc4)c3C[C@H]2CN1C(=O)c1ccccc1 here?
a: low-valued

q: Which composite z-score category applies to C=CCNC(=O)[C@H]1[C@@H]2C(=O)O[C@@H](c3ccccc3)[C@@H](c3ccccc3)N2[C@@H](c2ccc(OCCO)cc2)[C@]12C(=O)N(C(=O)OCCOC)c1ccc(C#CCNC(N)=O)cc12 here?
a: high-valued

q: Which composite z-score category applies to COC(=O)Cn1c(C(=O)N(C)C)cc2c1C[C@H]1CN(C(=O)c3ccccc3)[C@@](Cc3ccccc3)(C(=O)OC)[C@@H]21 here?
a: low-valued

q: Which composite z-score category applies to COC(=O)[C@@]1(Cc2ccc(F)cc2)[C@H]2c3cc(C(=O)N(C)C)n(Cc4cccc5ccccc45)c3C[C@H]2CN1C(=O)c1ccccc1 here?
a: mid-valued

q: Which composite z-score category applies to COCCOC(=O)N1C(=O)[C@@]2(c3cc(C#CC4=CCCCC4)ccc31)[C@H](C(=O)N1CCCCCCC1)[C@H]1C(=O)O[C@H](c3ccccc3)[C@H](c3ccccc3)N1[C@@H]2c1ccccc1OCCO here?
a: high-valued

q: Which composite z-score category applies to C=C(COC)C(=O)CC[C@H](OC(C)=O)c1ccc(CO)o1 here?
a: low-valued
